# Assay Info: Plasma pharmacokinetics in the phase I study
# Assay type: in vivo, human
# Measurement Parameters: human, plasma, oral, 650 mg/day, Part 1, Day 1 (single administration), 650 mg/day, n=6; read-out: tmax Median
Measurement Label: Tmax
Reply with a number, then the unit it belongs to.

**Q:** Look up and state reported Tmax for CNC(=O)c1cc2c(Oc3ccc(NC(=S)NC(=O)Cc4ccccc4)cc3F)ccnc2cc1OC
**A:** 1 h

---

# Assay Info: Plasma pharmacokinetics in the phase I study
# Type: in vivo, human
# Measurement Parameters: human, plasma, oral, 200 mg/day, Part 1, Day 8 (multiple administration), 200 mg/day, n=3; read-out: AUC0-24 Mean (SD)
Measurement Label: AUC(0-t)

**Q:** Look up and state reported AUC(0-t) for CNC(=O)c1cc2c(Oc3ccc(NC(=S)NC(=O)Cc4ccccc4)cc3F)ccnc2cc1OC
**A:** 22700 ng·h/mL

---

# Assay Info: Plasma pharmacokinetics in the phase I study
# Format: in vivo, human
# Measurement Parameters: human, plasma, oral, 650 mg/day, Expansion part, Fed, 650 mg/day, n=6; read-out: tmax Median
Measurement Label: Tmax (h)
Value expressed in h; do not type the unit.

**Q:** Look up and state reported Tmax for CNC(=O)c1cc2c(Oc3ccc(NC(=S)NC(=O)Cc4ccccc4)cc3F)ccnc2cc1OC [TAS-115]
**A:** 5

---

# Assay Info: Plasma pharmacokinetics in the phase I study
# Type: in vivo, human
# Measurement Parameters: human, plasma, oral, 650 mg/day, Part 1, Day 8 (multiple administration), 650 mg/day, n=4; read-out: t1/2 Mean (SD) (converted)
# Protocol: Blood samples were collected for plasma PK assessments pre-dosing and at 1, 2, 3, 4, 6, 8, 12, and 24 h after TAS-115 administration on Days 1 and 8 of cycle 1 in part 1, and on Days 1, 8, and 19 of cycle 1 in part 2 (only pre-dosing on Day 8). TAS-115 concentrations were measured by validated liquid chromatography-tandem mass spectrometry. […] Pharmacokinetic parameters were determined using non-compartmental analyses (Phoenix® WinNonlin® version 6.4; Certara LP, Princeton, NJ, USA).
Measurement Label: half-life (h)
Value expressed in h; do not type the unit.

**Q:** Look up and state reported half-life for CNC(=O)c1cc2c(Oc3ccc(NC(=S)NC(=O)Cc4ccccc4)cc3F)ccnc2cc1OC
**A:** 8.7

---

# Assay Info: Plasma pharmacokinetics in the phase I study
# Format: in vivo, human
# Measurement Parameters: human, plasma, oral, 650 mg/day, Part 2, Day 19 (multiple administration), 650 mg/day, n=6; read-out: t1/2 Mean (SD) (converted)
Measurement Label: half-life

**Q:** Look up and state reported half-life for CNC(=O)c1cc2c(Oc3ccc(NC(=S)NC(=O)Cc4ccccc4)cc3F)ccnc2cc1OC
**A:** 16.8 h

---

# Assay Info: Plasma pharmacokinetics in the phase I study
# Format: in vivo, human
# Measurement Parameters: human, plasma, oral, 200 mg/day, Part 1, Day 1 (single administration), 200 mg/day, n=3; read-out: Cmax Mean (SD)
Measurement Label: Cmax

**Q:** Look up and state reported Cmax for CNC(=O)c1cc2c(Oc3ccc(NC(=S)NC(=O)Cc4ccccc4)cc3F)ccnc2cc1OC [TAS-115]
**A:** 2490 ng/mL

---

# Assay Info: Plasma pharmacokinetics in the phase I study
# Type: in vivo, human
# Measurement Parameters: human, plasma, oral, 800 mg/day, Part 1, Day 1 (single administration), 800 mg/day, n=6; read-out: AUC0-24 Mean (SD)
Measurement Label: AUC(0-t)

**Q:** Look up and state reported AUC(0-t) for CNC(=O)c1cc2c(Oc3ccc(NC(=S)NC(=O)Cc4ccccc4)cc3F)ccnc2cc1OC [TAS-115]
**A:** 37.8 µg·h/mL

---

# Assay Info: Plasma pharmacokinetics in the phase I study
# Format: in vivo, human
# Measurement Parameters: human, plasma, oral, 650 mg/day, Part 2, Day 1 (single administration), 650 mg/day, n=6; read-out: Cmax Mean (SD)
Measurement Label: Cmax (ng/mL)
Value expressed in ng/mL; do not type the unit.

**Q:** Look up and state reported Cmax for CNC(=O)c1cc2c(Oc3ccc(NC(=S)NC(=O)Cc4ccccc4)cc3F)ccnc2cc1OC
**A:** 7510

---

# Assay Info: Plasma pharmacokinetics in the phase I study
# Assay type: in vivo, human
# Measurement Parameters: human, plasma, oral, 200 mg/day, Part 1, Day 8 (multiple administration), 200 mg/day, n=3; read-out: Cmax Mean (SD)
Measurement Label: Cmax
Reply with a number, then the unit it belongs to.

**Q:** Look up and state reported Cmax for CNC(=O)c1cc2c(Oc3ccc(NC(=S)NC(=O)Cc4ccccc4)cc3F)ccnc2cc1OC [TAS-115]
**A:** 2950 ng/mL

---

# Assay Info: Plasma pharmacokinetics in the phase I study
# Type: in vivo, human
# Measurement Parameters: human, plasma, oral, 650 mg/day, Expansion part, Fed, 650 mg/day, n=6; read-out: AUC0-24 Mean (SD)
Measurement Label: AUC(0-t) (ng·h/mL)
Value expressed in ng·h/mL; do not type the unit.

**Q:** Look up and state reported AUC(0-t) for CNC(=O)c1cc2c(Oc3ccc(NC(=S)NC(=O)Cc4ccccc4)cc3F)ccnc2cc1OC [TAS-115]
**A:** 41700

---

# Assay Info: Plasma pharmacokinetics in the phase I study
# Type: in vivo, human
# Measurement Parameters: human, plasma, oral, 300 mg/day, Part 1, Day 1 (single administration), 300 mg/day, n=3; read-out: AUC0-24 Mean (SD)
Measurement Label: AUC(0-t) (µg·h/mL)
Value expressed in µg·h/mL; do not type the unit.

**Q:** Look up and state reported AUC(0-t) for CNC(=O)c1cc2c(Oc3ccc(NC(=S)NC(=O)Cc4ccccc4)cc3F)ccnc2cc1OC [TAS-115]
**A:** 23.2

---

# Assay Info: Plasma pharmacokinetics in the phase I study
# Assay type: in vivo, human
# Measurement Parameters: human, plasma, oral, 200 mg/day, Part 1, Day 1 (single administration), 200 mg/day, n=2; read-out: t1/2 Mean (SD) (converted)
Measurement Label: half-life (h)
Value expressed in h; do not type the unit.

**Q:** Look up and state reported half-life for CNC(=O)c1cc2c(Oc3ccc(NC(=S)NC(=O)Cc4ccccc4)cc3F)ccnc2cc1OC
**A:** 15.2

---

# Assay Info: Plasma pharmacokinetics in the phase I study
# Type: in vivo, human
# Measurement Parameters: human, plasma, oral, 650 mg/day, Expansion part, Empty Stomach, 650 mg/day, n=6; read-out: Cmax Mean (SD)
# Protocol: Blood samples were collected for plasma PK assessments pre-dosing and at 1, 2, 3, 4, 6, 8, 12, and 24 h after TAS-115 administration on Days 1 and 8 of cycle 1 in part 1, and on Days 1, 8, and 19 of cycle 1 in part 2 (only pre-dosing on Day 8). TAS-115 concentrations were measured by validated liquid chromatography-tandem mass spectrometry. […] Pharmacokinetic parameters were determined using non-compartmental analyses (Phoenix® WinNonlin® version 6.4; Certara LP, Princeton, NJ, USA).
Measurement Label: Cmax
Reply with a number, then the unit it belongs to.

**Q:** Look up and state reported Cmax for CNC(=O)c1cc2c(Oc3ccc(NC(=S)NC(=O)Cc4ccccc4)cc3F)ccnc2cc1OC
**A:** 4760 ng/mL

---

# Assay Info: Plasma pharmacokinetics in the phase I study
# Assay type: in vivo, human
# Measurement Parameters: human, plasma, oral, 800 mg/day, Part 1, Day 8 (multiple administration), 800 mg/day, n=6; read-out: AUC0-24 Mean (SD)
Measurement Label: AUC(0-t) (ng·h/mL)
Value expressed in ng·h/mL; do not type the unit.

**Q:** Look up and state reported AUC(0-t) for CNC(=O)c1cc2c(Oc3ccc(NC(=S)NC(=O)Cc4ccccc4)cc3F)ccnc2cc1OC
**A:** 44600

---

# Assay Info: Plasma pharmacokinetics in the phase I study
# Format: in vivo, human
# Measurement Parameters: human, plasma, po, oral administration, across dose levels; read-out: median time to maximum concentration (tmax)
# Description: Blood samples were collected for plasma PK assessments pre-dosing and at 1, 2, 3, 4, 6, 8, 12, and 24 h after TAS-115 administration on Days 1 and 8 of cycle 1 in part 1, and on Days 1, 8, and 19 of cycle 1 in part 2 (only pre-dosing on Day 8). TAS-115 concentrations were measured by validated liquid chromatography-tandem mass spectrometry. […] Pharmacokinetic parameters were determined using non-compartmental analyses (Phoenix® WinNonlin® version 6.4; Certara LP, Princeton, NJ, USA).
Measurement Label: Tmax

**Q:** Look up and state reported Tmax for CNC(=O)c1cc2c(Oc3ccc(NC(=S)NC(=O)Cc4ccccc4)cc3F)ccnc2cc1OC [TAS-115]
**A:** 1 to 2 h

---

# Assay Info: Plasma pharmacokinetics in the phase I study
# Assay type: in vivo, human
# Measurement Parameters: human, plasma, oral, 650 mg/day, Part 1, Day 1 (single administration), 650 mg/day, n=6; read-out: t1/2 Mean (SD) (converted)
Measurement Label: half-life (h)
Value expressed in h; do not type the unit.

**Q:** Look up and state reported half-life for CNC(=O)c1cc2c(Oc3ccc(NC(=S)NC(=O)Cc4ccccc4)cc3F)ccnc2cc1OC
**A:** 10.3
